Taken from patent US8394971B2.

Target: androgen receptor (adenovirus AdEasy+rAR in COS-7 cells) (Rattus norvegicus, UniProt P15207)
Construct: expressed in transfected cells
Assay: COS-7 Whole-Cell Androgen Receptor Binding Assay, Adenovirus Transduction
Settings: COS binding; 3000 nM unless otherwise noted
Method: COS-7 cells were plated in 96-well plates at 20,000 cells per well, in a solution of DMEM/F12 (GIBCO) containing 10% (v/v) charcoal-treated fetal bovine serum (Hyclone) and lacking phenol red. […] To each well was then added 50 μL of 0.5% (v/v) Triton X-100 (Sigma) in 1×PBS and the plates placed on a rotary shaker for 5 min. […] To each well was then added 0.2 mL of Microscint-20 (Packard) and the wells counted on a TopCount (Packard). […] Counts per well were measured and percents of inhibition determined. […]
The following molecules are listed with their measured % Inhibition values.
measurementLabel: % Inhibition (%)

>>> measurement("CCSCC(C)(O)c1[nH]c2cc(C(F)(F)F)c(C#N)cc2c1C (single isomer, unassigned)")
71
>>> measurement("CSCC(C)(O)c1cc2cc([N+](=O)[O-])c(C(F)(F)F)cc2[nH]1 (centres unmarked) [compound 139]")
97
>>> measurement("CCSCC(C)(O)c1cc2cc([N+](=O)[O-])c(C(F)(F)F)cc2n1C (racemic) [compound 165]")
69
>>> measurement("CCSCC(O)c1cc2cc([N+](=O)[O-])c(C(F)(F)F)cc2[nH]1 (centres unmarked)")
56
>>> measurement("CCSCC(C)(O)c1cc2cc([N+](=O)[O-])c(C(F)(F)F)cc2n1C (single isomer, unassigned) [compound 231]")
78
>>> measurement("CC(O)(CS(C)(=O)=O)c1cc2cc([N+](=O)[O-])c(C(F)(F)F)cc2[nH]1 (centres unmarked) [compound 148]")
32
>>> measurement("CC(O)(CSCC(F)(F)F)c1cc2cc([N+](=O)[O-])c(C(F)(F)F)cc2[nH]1 (single isomer, unassigned) [compound 202]")
50
>>> measurement("CCSCC(C)(O)c1[nH]c2cc(C(F)(F)F)c([N+](=O)[O-])cc2c1C#N (single isomer, unassigned)")
90

----------
Consider the following molecules and their measured % Activity readings.
Molecular target: androgen receptor (adenovirus AdEasy+rAR in L929 cells) (Rattus norvegicus, UniProt P15207)
Construct: expressed in transfected cells
Sequence (P15207 1-902): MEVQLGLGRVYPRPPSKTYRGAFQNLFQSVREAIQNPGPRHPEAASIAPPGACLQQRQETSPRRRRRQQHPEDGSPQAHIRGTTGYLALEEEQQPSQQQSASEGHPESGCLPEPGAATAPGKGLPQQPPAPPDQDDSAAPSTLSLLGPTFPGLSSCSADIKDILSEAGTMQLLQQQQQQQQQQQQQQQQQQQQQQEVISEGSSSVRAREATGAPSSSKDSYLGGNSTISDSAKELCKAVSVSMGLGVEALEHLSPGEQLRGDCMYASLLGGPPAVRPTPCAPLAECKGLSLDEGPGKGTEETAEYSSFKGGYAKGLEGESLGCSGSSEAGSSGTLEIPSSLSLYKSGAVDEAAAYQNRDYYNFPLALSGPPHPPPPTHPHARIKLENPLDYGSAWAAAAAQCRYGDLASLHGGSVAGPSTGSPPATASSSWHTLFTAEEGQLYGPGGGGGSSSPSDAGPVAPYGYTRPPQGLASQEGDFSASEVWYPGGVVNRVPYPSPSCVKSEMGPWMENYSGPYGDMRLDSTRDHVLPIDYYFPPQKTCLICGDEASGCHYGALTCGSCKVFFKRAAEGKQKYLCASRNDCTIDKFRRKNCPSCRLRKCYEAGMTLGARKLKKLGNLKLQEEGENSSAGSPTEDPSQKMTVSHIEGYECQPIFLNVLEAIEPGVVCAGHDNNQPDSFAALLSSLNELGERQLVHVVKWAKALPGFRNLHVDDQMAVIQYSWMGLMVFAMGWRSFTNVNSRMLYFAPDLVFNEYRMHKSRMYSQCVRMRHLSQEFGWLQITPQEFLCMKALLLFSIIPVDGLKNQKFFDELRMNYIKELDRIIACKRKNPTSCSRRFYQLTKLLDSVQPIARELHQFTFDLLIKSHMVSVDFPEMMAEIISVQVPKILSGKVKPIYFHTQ
Assay: L929 Androgen Receptor Functional Assay, Adenovirus Transduction
Assay type: cell-based
Conditions: L929 agonist testing; 3000 nM
measurementLabel: % Activity (%)

>>> measurement("CCC(O)(CS(=O)(=O)CC(F)(F)F)c1[nH]c2cc(C(F)(F)F)c([N+](=O)[O-])cc2c1Cl (stereo not drawn)")
2
>>> measurement("CC(O)(CSCC(F)(F)F)c1cc2cc(C#N)c(C(F)(F)F)cc2[nH]1 (racemic)")
"−1"
>>> measurement("CC(O)(CSc1ccc([N+](=O)[O-])cc1)c1cc2cc(Cl)c(C(F)(F)F)cc2[nH]1 (stereo not drawn)")
10
>>> measurement("COc1ccc(S(=O)(=O)CC(C)(O)c2cc3cc(Cl)c(C(F)(F)F)cc3n2S(C)(=O)=O)cc1 (stereo not drawn)")
"−4"
>>> measurement("CC(O)(CSc1ccc(C(=O)O)cc1)c1cc2cc(Cl)c(C(F)(F)F)cc2n1S(C)(=O)=O (stereo not drawn)")
"−5"
>>> measurement("CCC(O)(CSCC(F)(F)F)c1cc2cc(Cl)c(C(F)(F)F)cc2[nH]1 (stereo not drawn)")
8
>>> measurement("CCCS(=O)(=O)CC(C)(O)c1cc2cc([N+](=O)[O-])c(C(F)(F)F)cc2[nH]1 (stereo not drawn)")
2
>>> measurement("CCS(=O)(=O)CC(C)(O)c1cc2cc([N+](=O)[O-])c(C(F)(F)F)cc2[nH]1 (stereo not drawn)")
0
>>> measurement("CC(C)SCC(C)(O)c1cc2cc([N+](=O)[O-])c(C(F)(F)F)cc2[nH]1 (stereo not drawn)")
2
>>> measurement("CSCCC(C)(O)c1cc2cc(Cl)c(C(F)(F)F)cc2[nH]1 (racemic)")
2
>>> measurement("CCS(=O)(=O)CC(C)(O)c1cc2cc(C#N)c(C(F)(F)F)cc2n1C (racemic)")
0
>>> measurement("COc1ccc(SCC(C)(O)c2cc3cc(Cl)c(C(F)(F)F)cc3[nH]2)cc1 (stereo not drawn)")
"−5"
>>> measurement("CN(C)c1ccc(S(=O)(=O)CC(C)(O)c2cc3cc(Cl)c(C(F)(F)F)cc3[nH]2)cc1 (racemic)")
"−5"
>>> measurement("COc1ccc(SCC(C)(O)c2cc3cc(Cl)c(C(F)(F)F)cc3n2S(C)(=O)=O)cc1 (racemic)")
"−5"
>>> measurement("CCSCC(C)(O)c1cc2cc(C#N)c(C(F)(F)F)cc2[nH]1 (single isomer, unassigned) [Compound #217]")
5
